Where do these numbers come from? They come from the supplement of paper PMC8633005.

Tested on: Bowes
Assay procedure: drug sensitivity score (DSS) (DSS (unitless, 0-50 scale)); higher = more sensitive (stronger viability inhibition); extreme values may be limits of the assay
Condition notes: 72 h; culture: 2D
Readout name: drug sensitivity score
Form field (numeric): enter value without unit.

These solved cases illustrate the format of a correct answer.
Sure, the documented drug sensitivity score for C[C@@H]1C[C@H]2[C@@H]3CCC4=CC(=O)C=C[C@]4(C)[C@@]3(F)[C@@H](O)C[C@]2(C)[C@@]1(O)C(=O)CO is 0

Sure, the documented drug sensitivity score for Nc1cccc2c1CN(C1CCC(=O)NC1=O)C2=O (stereo unspecified) [Lenalidomide] is 0

Sure, the documented drug sensitivity score for O=C(Nc1ccc(OC(F)(F)Cl)cc1)c1cnc(N2CC[C@@H](O)C2)c(-c2cc[nH]n2)c1 is 0

Sure, the documented drug sensitivity score for CN1CCN(c2ccc(C(=O)Nc3n[nH]c4ccc(Cc5cc(F)cc(F)c5)cc34)c(NC3CCOCC3)c2)CC1 is 0

Sure, the documented drug sensitivity score for CC(C)Oc1ccc(C(=O)N[C@H](CNC(=O)CN(C)C)Cc2ccc(-c3cn4cccc([C@H](C)O)c4n3)cc2)cc1Cl is 19.2

Sure, the documented drug sensitivity score for Cc1nc(Nc2ncc(C(=O)Nc3c(C)cccc3Cl)s2)cc(N2CCN(CCO)CC2)n1 is 1.9

---
Sure, the documented drug sensitivity score for NC(=O)Nc1cc(-c2cccc(F)c2)sc1C(=O)N[C@H]1CCCNC1 is 7.7

Sure, the documented drug sensitivity score for COc1ccc(COc2cc3oc(=O)c4cc(C(C)O)ccc4c3cc2OC)cc1 (stereo unspecified) is 0

Sure, the documented drug sensitivity score for CO[C@@]12[C@H](COC(N)=O)C3=C(C(=O)C(C)=C(N)C3=O)N1C[C@@H]1N[C@@H]12 is 3.1

Sure, the documented drug sensitivity score for O[C@H](C[C@H]1c2c(F)cccc2-c2cncn21)[C@H]1CC[C@H](O)CC1 is 0.3

Sure, the documented drug sensitivity score for CNC(=O)c1ccc(-c2cnc3ncc(Cc4ccc5ncccc5c4)n3n2)cc1F is 0

Sure, the documented drug sensitivity score for C=CC(=O)N1CCC(Oc2cc3c(Nc4ccc(Cl)c(Cl)c4F)ncnc3cc2OC)CC1 is 2.2
